Experiment notes: Modulatory activity at P-gp assessed as doxorubicin IC50 in human K562 cells at 0.1 uM after 72 hrs by MTT assay (Rvb doxorubicin alone IC50 = 0.023 +/- 0.004 uM)
pIC50: −log10 of the molar value.
Measurement kind: pIC50

COc1cc(/C=C/C(=O)OCCCCN(C)CCCCOC(=O)c2c3ccccc3cc3ccccc23)cc(OC)c1OC = 7.66

A = COc1cc(/C=C/C(=O)OCCCN(C)CCCCCOC(=O)c2c3ccccc3cc3ccccc23)cc(OC)c1OC
B = COc1cc(/C=C/C(=O)OCCCCCN(C)CCCOC(=O)c2c3ccccc3cc3ccccc23)cc(OC)c1OC
Input line: Lower pIC50: A or B ? # answer = label of selected item
Output line: B
